B1: glmS ribozyme (parent)
chain: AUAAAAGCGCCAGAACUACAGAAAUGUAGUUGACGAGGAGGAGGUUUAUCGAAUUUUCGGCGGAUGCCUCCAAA

variants of: B1; assay: self-cleavage kobs at 10000 uM GlcN6P; higher = faster cleavage; RNA array; settings: with glucosamine-6-phosphate
This sample holds only a part of the variants without activity.
Label true (1) when self-cleavage kobs at 10000 uM GlcN6P >= 0.0001 s⁻¹; otherwise false (0).

A selection of reference data follows.
mutant-designation	assigned-category
U31A G32A	true (1)
C11A G60U	false (0)
A14U A64C	false (0)

Answer whether self-cleavage kobs at 10000 uM GlcN6P of A33G C34A is greater than or equal to 0.0001 s⁻¹. false (0)

Answer whether self-cleavage kobs at 10000 uM GlcN6P of A53U C67A is greater than or equal to 0.0001 s⁻¹. true (1)

Answer whether self-cleavage kobs at 10000 uM GlcN6P of C16G U55A is greater than or equal to 0.0001 s⁻¹. true (1)

Answer whether self-cleavage kobs at 10000 uM GlcN6P of C16U G40C is greater than or equal to 0.0001 s⁻¹. true (1)

Answer whether self-cleavage kobs at 10000 uM GlcN6P of A39G A64G is greater than or equal to 0.0001 s⁻¹. true (1)

Answer whether self-cleavage kobs at 10000 uM GlcN6P of G9A G60U C70G is greater than or equal to 0.0001 s⁻¹. false (0)

Answer whether self-cleavage kobs at 10000 uM GlcN6P of A15G G37C is greater than or equal to 0.0001 s⁻¹. false (0)
